- Study Target: Homeodomain-interacting protein kinase 1 (Homo sapiens)
- Sequence (Q86Z02 whole entry): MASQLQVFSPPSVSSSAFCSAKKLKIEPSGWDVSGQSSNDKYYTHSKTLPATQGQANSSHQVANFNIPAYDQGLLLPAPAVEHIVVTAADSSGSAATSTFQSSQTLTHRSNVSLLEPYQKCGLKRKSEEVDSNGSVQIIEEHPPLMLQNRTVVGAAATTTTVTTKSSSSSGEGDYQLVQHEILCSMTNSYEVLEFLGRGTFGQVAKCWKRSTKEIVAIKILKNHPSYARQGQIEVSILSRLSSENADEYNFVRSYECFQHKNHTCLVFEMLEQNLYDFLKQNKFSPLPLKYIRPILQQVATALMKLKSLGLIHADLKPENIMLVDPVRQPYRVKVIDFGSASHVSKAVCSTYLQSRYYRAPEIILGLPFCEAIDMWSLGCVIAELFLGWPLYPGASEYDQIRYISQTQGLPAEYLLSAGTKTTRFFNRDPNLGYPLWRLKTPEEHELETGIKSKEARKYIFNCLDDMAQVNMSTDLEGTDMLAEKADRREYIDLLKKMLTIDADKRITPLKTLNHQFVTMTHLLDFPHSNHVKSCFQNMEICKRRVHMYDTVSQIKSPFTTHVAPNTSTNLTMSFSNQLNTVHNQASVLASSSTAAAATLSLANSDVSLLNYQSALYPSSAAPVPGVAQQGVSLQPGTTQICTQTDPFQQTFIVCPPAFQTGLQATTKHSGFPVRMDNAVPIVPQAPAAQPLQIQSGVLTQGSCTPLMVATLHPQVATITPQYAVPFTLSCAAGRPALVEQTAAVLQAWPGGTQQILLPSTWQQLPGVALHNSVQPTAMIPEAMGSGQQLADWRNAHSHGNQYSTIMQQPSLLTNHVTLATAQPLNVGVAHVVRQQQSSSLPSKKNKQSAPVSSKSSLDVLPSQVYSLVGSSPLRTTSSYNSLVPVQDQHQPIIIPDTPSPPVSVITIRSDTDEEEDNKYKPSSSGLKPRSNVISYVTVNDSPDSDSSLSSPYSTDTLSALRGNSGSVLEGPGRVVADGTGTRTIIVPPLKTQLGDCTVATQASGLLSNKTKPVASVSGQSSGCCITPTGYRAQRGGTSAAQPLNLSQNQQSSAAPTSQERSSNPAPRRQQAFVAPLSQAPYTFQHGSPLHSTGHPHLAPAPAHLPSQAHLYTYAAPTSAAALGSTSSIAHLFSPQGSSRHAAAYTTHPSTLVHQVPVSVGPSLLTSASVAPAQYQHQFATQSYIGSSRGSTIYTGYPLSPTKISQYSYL
Measured Endpoint: IC50 (µM)

| Mol Smiles | Uom | Assay Value |
| --- | --- | --- |
| Cn1cc(-c2ccc3occ(-c4cccc(-c5ccncc5)c4)c3n2)cn1 | µM | 0.187 |

====

- Study Target: Dual specificity protein kinase CLK1 (Homo sapiens, UniProt P49759)
- Sequence (P49759 whole entry): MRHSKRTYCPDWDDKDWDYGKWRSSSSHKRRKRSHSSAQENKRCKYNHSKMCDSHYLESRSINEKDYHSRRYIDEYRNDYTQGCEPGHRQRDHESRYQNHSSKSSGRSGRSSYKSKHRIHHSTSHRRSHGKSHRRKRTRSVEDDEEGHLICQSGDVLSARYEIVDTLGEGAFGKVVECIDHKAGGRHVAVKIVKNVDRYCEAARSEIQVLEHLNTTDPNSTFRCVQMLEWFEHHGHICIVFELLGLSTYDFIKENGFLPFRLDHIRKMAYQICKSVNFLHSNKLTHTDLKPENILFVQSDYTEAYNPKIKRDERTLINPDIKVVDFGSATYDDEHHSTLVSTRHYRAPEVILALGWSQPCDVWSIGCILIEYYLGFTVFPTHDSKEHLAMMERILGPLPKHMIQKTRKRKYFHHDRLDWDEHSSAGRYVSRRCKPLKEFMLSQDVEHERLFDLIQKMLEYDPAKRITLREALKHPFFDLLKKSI
- Assay Protocol: Inhibition of full length wild type CLK1 (unknown origin) expressed in HEK293 cells incubated for 2 hrs followed by NanoBRET NanoGlo Substrate addition by NanoBRET assay

| Compound | Uom | Ki |
| --- | --- | --- |
| Cn1c2c(c3ccc(Cl)c(Cl)c31)C(C#N)C1(CCNCC1)NC2=O (stereo unspecified) | µM | 0.14 |

====

- Study Target: Homeodomain-interacting protein kinase 2 (Homo sapiens)
- Sequence (Q9H2X6 whole entry): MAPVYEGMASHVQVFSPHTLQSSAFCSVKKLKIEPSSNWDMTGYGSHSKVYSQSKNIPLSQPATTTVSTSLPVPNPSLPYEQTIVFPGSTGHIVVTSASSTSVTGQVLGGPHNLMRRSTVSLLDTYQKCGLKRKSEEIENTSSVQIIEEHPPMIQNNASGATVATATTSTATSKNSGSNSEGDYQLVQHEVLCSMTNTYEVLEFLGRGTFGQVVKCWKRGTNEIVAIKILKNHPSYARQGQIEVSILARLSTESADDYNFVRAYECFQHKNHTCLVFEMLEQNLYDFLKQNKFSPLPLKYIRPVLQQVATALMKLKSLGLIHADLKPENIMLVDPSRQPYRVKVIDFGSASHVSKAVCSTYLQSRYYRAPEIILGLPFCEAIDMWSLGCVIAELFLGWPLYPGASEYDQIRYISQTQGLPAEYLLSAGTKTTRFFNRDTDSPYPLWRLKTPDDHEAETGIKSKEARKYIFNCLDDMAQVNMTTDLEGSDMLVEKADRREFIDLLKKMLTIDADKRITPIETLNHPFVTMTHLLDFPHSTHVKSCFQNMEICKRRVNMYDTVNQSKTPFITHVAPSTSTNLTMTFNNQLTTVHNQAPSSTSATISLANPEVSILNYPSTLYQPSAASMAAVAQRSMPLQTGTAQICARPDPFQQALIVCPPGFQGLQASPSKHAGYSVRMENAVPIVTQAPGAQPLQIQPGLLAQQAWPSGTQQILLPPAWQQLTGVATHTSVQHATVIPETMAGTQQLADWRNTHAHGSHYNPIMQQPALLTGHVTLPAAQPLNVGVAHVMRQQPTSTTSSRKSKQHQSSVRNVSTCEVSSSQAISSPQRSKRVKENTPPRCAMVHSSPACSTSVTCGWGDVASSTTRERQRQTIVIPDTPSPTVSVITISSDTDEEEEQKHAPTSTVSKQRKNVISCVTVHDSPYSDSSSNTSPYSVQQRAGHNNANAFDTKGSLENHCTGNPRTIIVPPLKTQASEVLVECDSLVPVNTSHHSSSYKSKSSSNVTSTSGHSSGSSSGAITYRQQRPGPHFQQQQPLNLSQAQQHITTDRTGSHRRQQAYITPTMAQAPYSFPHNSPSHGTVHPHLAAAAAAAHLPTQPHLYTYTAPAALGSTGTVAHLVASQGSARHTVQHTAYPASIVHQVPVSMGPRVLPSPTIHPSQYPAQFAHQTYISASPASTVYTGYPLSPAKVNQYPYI
pIC50: −log10 of the molar value.

| Mol Smiles | pIC50 |
| --- | --- |
| Cn1cc(-c2ccc3occ(-c4cccc(-c5ccncc5)c4)c3n2)cn1 | 7.54 |

====

- Study Target: Dual specificity protein kinase CLK3 (Homo sapiens, UniProt P49761)
- Sequence (P49761 whole entry, looked up): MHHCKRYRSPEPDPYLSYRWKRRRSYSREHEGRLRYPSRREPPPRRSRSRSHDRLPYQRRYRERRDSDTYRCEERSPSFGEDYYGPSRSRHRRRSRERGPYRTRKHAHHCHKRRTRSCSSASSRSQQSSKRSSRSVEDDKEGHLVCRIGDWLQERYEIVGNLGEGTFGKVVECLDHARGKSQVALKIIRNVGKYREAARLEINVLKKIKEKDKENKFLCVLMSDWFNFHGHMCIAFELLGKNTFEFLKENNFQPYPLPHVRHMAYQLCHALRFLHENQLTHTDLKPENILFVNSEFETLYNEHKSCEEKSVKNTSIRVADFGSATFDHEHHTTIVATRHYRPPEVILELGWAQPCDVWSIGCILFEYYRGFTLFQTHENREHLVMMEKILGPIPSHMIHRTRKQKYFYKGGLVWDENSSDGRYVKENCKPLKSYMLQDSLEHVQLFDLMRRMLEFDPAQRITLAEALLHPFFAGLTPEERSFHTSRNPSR
- Condition Notes: dose 10.0 µM, time 10.0 min
Measured Endpoint: ΔTm (°C)

| Compound | Uom | Assay Value |
| --- | --- | --- |
| COC(=N)c1nc2ccc3ncnc(Nc4ccc(OC)cc4F)c3c2s1 | °C | 3.4 |
| CCOc1ccc2c(-c3ccnc(Nc4cc(OC)cc(C(F)(F)F)c4)n3)cnn2n1 | °C | 2 |
| Cn1cc(-c2ccc3occ(-c4cccc(Oc5ccccc5)c4)c3n2)cn1 | °C | 4.8 |
| Cn1c2c(c3ccc(Cl)c(Cl)c31)C(C#N)C1(CCNCC1)NC2=O (stereo unspecified) | °C | 1.4 |
| CCN1/C(=C\C(C)=O)Sc2ccc(OC)cc21 | °C | 3 |
| O=C1NCc2ccc3c(-c4cccc(Cl)c4)c[nH]c3c21 | °C | 2.3 |

====

- Study Target: Homeodomain-interacting protein kinase 3 (Homo sapiens)
- Assay Protocol: Inhibition of human HIPK3 by radiometric assay
pIC50: −log10 of the molar value.

| Mol Smiles | pIC50 |
| --- | --- |
| Cn1cc(-c2ccc3occ(-c4cccc(-c5ccncc5)c4)c3n2)cn1 | 6.80 |

====

- Study Target: Dual specificity protein kinase CLK2 (Homo sapiens) (UniProt P49760)
- Sequence (P49760 whole entry, looked up): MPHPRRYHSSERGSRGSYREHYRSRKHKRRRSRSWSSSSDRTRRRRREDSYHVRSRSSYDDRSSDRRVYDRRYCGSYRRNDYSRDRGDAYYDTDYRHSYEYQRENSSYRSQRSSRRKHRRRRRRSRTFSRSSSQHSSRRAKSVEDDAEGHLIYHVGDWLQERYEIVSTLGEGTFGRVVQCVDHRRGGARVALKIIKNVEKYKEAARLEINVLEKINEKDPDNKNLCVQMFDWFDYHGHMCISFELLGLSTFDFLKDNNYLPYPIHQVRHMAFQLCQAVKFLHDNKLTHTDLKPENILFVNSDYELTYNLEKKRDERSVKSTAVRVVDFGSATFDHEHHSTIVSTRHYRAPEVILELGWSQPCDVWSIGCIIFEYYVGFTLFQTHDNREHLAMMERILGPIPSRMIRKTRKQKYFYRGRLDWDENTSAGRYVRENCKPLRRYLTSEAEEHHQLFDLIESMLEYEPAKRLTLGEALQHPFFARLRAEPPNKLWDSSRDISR
- Condition Notes: dose 10.0 µM, time 10.0 min
Here the recorded ΔTm is given for each entry.

| Molecule | Comparison Symbol | ΔTm [°C] |
| --- | --- | --- |
| CCN1/C(=C\C(C)=O)Sc2ccc(OC)cc21 | > | 4 |
| COC(=N)c1nc2ccc3ncnc(Nc4ccc(OC)cc4F)c3c2s1 | = | 7 |
| CC(=O)c1cccc(-c2cnc3ccc(NCC4CC4)nn23)c1 | > | 4 |
| Cn1c2c(c3ccc(Cl)c(Cl)c31)C(C#N)C1(CCNCC1)NC2=O (stereo not drawn) | = | 3.5 |
| CCOc1ccc2c(-c3ccnc(Nc4cc(OC)cc(C(F)(F)F)c4)n3)cnn2n1 | = | 8.4 |
| Nc1nccc(-c2ccc3noc(-c4ccc(Cl)cc4)c3c2)n1 | > | 6 |
| O=C1NCc2ccc3c(-c4cccc(Cl)c4)c[nH]c3c21 | = | 4.9 |
| Cn1cc(-c2ccc3occ(-c4cccc(Oc5ccccc5)c4)c3n2)cn1 | = | 8.3 |
